Data credit: patent US20190241668A1

tested_on: T1, TIM-3 (T cell immunoglobulin and mucin-domain containing-3) (human, UniProt Q8TDQ0 22-200, limits assumed)
T1 construct: also called TIMD-3; HAVCR2
T1 sequence (looked up): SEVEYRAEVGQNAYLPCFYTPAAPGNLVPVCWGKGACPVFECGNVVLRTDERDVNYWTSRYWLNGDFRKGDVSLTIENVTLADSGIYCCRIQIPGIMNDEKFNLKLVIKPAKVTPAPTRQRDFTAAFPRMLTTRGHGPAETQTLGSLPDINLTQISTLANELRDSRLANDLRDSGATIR
assay_procedure: ELISA, Fab on TIM-3
Measured EC50, listed per entry.
Kindly provide the numeric value in ng/mL only, without the unit symbol.

Some solved entries appear below for comparison.
binder="Fab clone 2B9 (Fab, V domains shown, Llama-derived Fab from an immune library; the constant domains of the Fab are not) VH: EVQLQESGPGLVKPSQTLSLTCTVSGASVTTRYNYWSWIRQPPGKGLEWMGAITYSGSTYYSPSLKSRTSISRDTSKNQFTLQLSSVTPEDTAVYYCATEGSSSTGVSRYSFGSWGQGTQVTVSS VL: ATMLTQSPGSLSVVPGESASISCKASQSLTHTDGTTALYWLQQKPGQRPQLLIYEVSVRASGVPDRFTGSGSGSDFTLKINGVKAEDAGVYYCAQVAYYPTFGQGTKVELK" recorded_number=8.51
binder="Fab clone 2A2 (Fab, V domains shown, Llama-derived Fab from an immune library; the constant domains of the Fab are not) VH: EVQVQESGGGLVQPGGSLRLSCAASGFTFSSYAMSWVRQAPGKGLEWVSDINSGGGSTVYTDSVKGRFTISRDNAKNTLYLQMNSLKPDDTAVYYCATGGSYYSYRLFDYWGQGTQVTVSS VL: DIQMTQSPSSVIVSAGEKVTINCKSSQSVLDSSNQKNYLAWYQQRLGQSPRLLIYWASTRESGVPDRFSGSGSTTDFTLTISSFQPEDAAVYYCQQGYSVPVTFGQGTKVELKR" recorded_number=8.05

Exam item: Reported EC50 for Fab clone 2E2 (Fab, V domains shown, Llama-derived Fab from an immune library; the constant domains of the Fab are not) VH: QLQLVESGGGLVQPGGSLRLSCAASGFTFGSYDMSWVRQAPGKGPEWVSRITSGGGSTYADSVKGRFTISRDNAKNTLSLQMNSLKSEDTAVYYCAAGQYSDGYYPYDYWGQGTQVTVSS VL: DIVMTQSPSSLSASLGDRVTITCQASQSISSYLAWYQQKPGQGPKLLIYGASRLEPGVPSRFSGSGSGTSFTLTISGVEAEDLATYYCLQDYSWPYSFGSGTRLEIK : what is it?
Marked response: 121
